Listed here are variants together with their documented protein stability index.
B1: RBBP5 (parent)
chain: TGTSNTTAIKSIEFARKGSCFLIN

- Variants of: B1
- Assay Method Text: protein stability index of a GFP-peptide fusion (GPS, HEK-293T) (PSI 1-6); higher = more stable;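 note: lentivirally expressed fusions sorted by FACS into six bins by GFP to DsRed ratio, PSI derived from sequencing read proportions per bin multiplied by bin number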
- Test Conditions: c terminus: a fixed tail appended

Sequence Content | protein stability index
TGTSNTTAIKSIEAARKGSCFLIN | 3.06
TGTANTTAIKSIEFARKGSCFLIN | 2.29
TGTSNTTAIKSIEFARKGRCFLIN | 2.24
TGTSNTTAIKSIEFARKGSCFTIN | 3.09
TGTSNTTAIKSIEFAREGSCFLIN | 2.6
TGTSITTAIKSIEFARKGSCFLIN | 1.95
TGTVNTTAIKSIEFARKGSCFLIN | 2.09
TGTSNTTAIKSIEQARKGSCFLIN | 3.12
TGTSNTLAIKSIEFARKGSCFLIN | 1.77
TRTSNTTAIKSIEFARKGSCFLIN | 2.07
TGTSNTTAIKSIEWARKGSCFLIN | 2.07
TGTSNTTAIKSDEFARKGSCFLIN | 2.79
TGTHNTTAIKSIEFARKGSCFLIN | 2.3
TGTSNTTAIHSIEFARKGSCFLIN | 2.77
TGTSNTTAPKSIEFARKGSCFLIN | 2.61
TGTSNTTAIKSIEFARKGSCHLIN | 2.86
TGTSNTTAIKSIEFARKGSIFLIN | 2.23
TLTSNTTAIKSIEFARKGSCFLIN | 2.18
TGTSNTTAIKSIEFARKTSCFLIN | 1.71
TGTSNTTAIKSIEFPRKGSCFLIN | 2.46
WGTSNTTAIKSIEFARKGSCFLIN | 1.69
TGTSNTTAIKSIEFARKGSCFLNN | 2.99
TGTSNTTAIKSIEFARIGSCFLIN | 1.29
TGTSNTTLIKSIEFARKGSCFLIN | 2.17
TGTSNTTAIKSIEFARKGSCFLRN | 3.03
TGTSNTTAIVSIEFARKGSCFLIN | 1.93
TGTSNTTVIKSIEFARKGSCFLIN | 1.58
TGTSNTTAIKSKEFARKGSCFLIN | 2.23
